Exercise: for every item that follows, state its recorded AC50.
biological target: UniProt P9WQ81; test: Mycobacterium tuberculosis BioA enzyme inhibitor Measured in Biochemical System Using Plate Reader - 2163-02_Inhibitor_Dose_CherryPick_Activity.; type: functional, Mycobacterium tuberculosis UT205
Sequence (P9WQ81 whole entry): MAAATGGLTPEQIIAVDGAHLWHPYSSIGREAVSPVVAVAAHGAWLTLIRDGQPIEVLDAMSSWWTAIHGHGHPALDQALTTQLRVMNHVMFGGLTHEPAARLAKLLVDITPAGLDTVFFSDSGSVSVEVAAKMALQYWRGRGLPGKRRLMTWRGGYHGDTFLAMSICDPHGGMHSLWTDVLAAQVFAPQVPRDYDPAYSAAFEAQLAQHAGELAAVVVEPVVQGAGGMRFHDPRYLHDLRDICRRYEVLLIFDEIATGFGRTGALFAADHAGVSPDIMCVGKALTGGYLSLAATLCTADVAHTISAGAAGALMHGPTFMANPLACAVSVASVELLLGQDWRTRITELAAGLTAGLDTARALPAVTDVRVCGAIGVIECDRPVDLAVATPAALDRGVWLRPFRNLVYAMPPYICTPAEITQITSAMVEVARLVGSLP
Activity calls are given as the source filed them.

// `Cc1nnc(N2CCC(C(=O)N3CCCCC3)CC2)c2nn(-c3ccc(Cl)cc3)c(C)c12` : AC50 value = 4.14 µM (active)

// `COc1ccc(NC(=O)c2ccc(S(=O)(=O)N(C)C)cc2)cc1OC` : AC50 value = 9.66 µM (active)

// Cn1nnc2cc(C(=O)N3CCC(c4ccccc4)C3)ccc21 (stereo not given) : AC50 value = 4.86 µM (active)

// `CC(=O)N1[C@@H]2c3ccc(-c4cccnc4)c(=O)n3C[C@@H]2[C@@H](CO)[C@@H]1C(=O)NCc1ccccc1Cl` : AC50 value = 1.09 µM (active)

// `CC(=O)c1ccc(N2CCN(C(=O)c3ccc4[nH]cnc4c3)CC2)cc1` : AC50 value = 8.11 µM (active)

* * *

Biological target: UniProt:P05186
Sequence (P05186 whole entry): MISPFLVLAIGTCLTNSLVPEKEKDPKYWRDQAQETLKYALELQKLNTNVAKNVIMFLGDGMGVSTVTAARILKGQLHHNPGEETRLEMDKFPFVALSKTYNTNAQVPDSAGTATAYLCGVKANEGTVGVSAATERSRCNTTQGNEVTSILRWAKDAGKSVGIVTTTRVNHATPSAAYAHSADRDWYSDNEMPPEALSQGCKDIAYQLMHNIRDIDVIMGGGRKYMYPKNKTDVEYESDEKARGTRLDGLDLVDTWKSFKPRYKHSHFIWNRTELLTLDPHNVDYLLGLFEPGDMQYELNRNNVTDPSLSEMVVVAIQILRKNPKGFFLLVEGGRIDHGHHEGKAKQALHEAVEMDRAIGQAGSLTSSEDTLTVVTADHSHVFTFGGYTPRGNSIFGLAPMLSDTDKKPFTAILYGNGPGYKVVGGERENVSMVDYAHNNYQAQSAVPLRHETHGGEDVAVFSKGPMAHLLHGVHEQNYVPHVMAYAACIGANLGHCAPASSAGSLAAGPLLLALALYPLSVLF
Test: TNAP enzyme inhibition by screening hits, dose response, selectivity assay for mouse IAP inhibitor project, biochemical, human TNAP, uHTS hits (AID 488906)
Type: functional
Calls of active or inactive are those of the source.
Valid outcomes are listed here; reply with one: active, inactive

Q: Recorded test call requested for `COc1ccc(C(=O)OCC(=O)Nc2ncc([N+](=O)[O-])s2)cc1OC`
Result: active

Q: Recorded test call requested for `CCOC(=O)c1ccc(N2CCN(c3ccccc3F)CC2)c(NC(=O)Nc2cccc(OC)c2)c1`
Result: inactive

Q: Recorded test call requested for `O=C(N/N=C/c1cn(Cc2cccc(F)c2)c2ccccc12)c1cc(O)cc(O)c1`
Result: inactive

Q: Recorded test call requested for `CCn1c(SCC(=O)c2ccc(O)c(O)c2)nnc1-c1ccccc1OC`
Result: inactive

Q: Recorded test call requested for `O=C(NC1CCCCC1)Oc1cc2oc(=O)sc2cc1Cl`
Result: active

* * *

molecular target: UniProt:P49327; assay: inhibition of human FAS-TE enzyme activity – biochemical, kinetic fluorescence intensity, dose response (AID 624326); format: functional;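 note: rate of fluorescence rise from hydrolysis of a fluorogenic O-methyl fluorescein ester substrate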
Sequence (P49327 whole entry): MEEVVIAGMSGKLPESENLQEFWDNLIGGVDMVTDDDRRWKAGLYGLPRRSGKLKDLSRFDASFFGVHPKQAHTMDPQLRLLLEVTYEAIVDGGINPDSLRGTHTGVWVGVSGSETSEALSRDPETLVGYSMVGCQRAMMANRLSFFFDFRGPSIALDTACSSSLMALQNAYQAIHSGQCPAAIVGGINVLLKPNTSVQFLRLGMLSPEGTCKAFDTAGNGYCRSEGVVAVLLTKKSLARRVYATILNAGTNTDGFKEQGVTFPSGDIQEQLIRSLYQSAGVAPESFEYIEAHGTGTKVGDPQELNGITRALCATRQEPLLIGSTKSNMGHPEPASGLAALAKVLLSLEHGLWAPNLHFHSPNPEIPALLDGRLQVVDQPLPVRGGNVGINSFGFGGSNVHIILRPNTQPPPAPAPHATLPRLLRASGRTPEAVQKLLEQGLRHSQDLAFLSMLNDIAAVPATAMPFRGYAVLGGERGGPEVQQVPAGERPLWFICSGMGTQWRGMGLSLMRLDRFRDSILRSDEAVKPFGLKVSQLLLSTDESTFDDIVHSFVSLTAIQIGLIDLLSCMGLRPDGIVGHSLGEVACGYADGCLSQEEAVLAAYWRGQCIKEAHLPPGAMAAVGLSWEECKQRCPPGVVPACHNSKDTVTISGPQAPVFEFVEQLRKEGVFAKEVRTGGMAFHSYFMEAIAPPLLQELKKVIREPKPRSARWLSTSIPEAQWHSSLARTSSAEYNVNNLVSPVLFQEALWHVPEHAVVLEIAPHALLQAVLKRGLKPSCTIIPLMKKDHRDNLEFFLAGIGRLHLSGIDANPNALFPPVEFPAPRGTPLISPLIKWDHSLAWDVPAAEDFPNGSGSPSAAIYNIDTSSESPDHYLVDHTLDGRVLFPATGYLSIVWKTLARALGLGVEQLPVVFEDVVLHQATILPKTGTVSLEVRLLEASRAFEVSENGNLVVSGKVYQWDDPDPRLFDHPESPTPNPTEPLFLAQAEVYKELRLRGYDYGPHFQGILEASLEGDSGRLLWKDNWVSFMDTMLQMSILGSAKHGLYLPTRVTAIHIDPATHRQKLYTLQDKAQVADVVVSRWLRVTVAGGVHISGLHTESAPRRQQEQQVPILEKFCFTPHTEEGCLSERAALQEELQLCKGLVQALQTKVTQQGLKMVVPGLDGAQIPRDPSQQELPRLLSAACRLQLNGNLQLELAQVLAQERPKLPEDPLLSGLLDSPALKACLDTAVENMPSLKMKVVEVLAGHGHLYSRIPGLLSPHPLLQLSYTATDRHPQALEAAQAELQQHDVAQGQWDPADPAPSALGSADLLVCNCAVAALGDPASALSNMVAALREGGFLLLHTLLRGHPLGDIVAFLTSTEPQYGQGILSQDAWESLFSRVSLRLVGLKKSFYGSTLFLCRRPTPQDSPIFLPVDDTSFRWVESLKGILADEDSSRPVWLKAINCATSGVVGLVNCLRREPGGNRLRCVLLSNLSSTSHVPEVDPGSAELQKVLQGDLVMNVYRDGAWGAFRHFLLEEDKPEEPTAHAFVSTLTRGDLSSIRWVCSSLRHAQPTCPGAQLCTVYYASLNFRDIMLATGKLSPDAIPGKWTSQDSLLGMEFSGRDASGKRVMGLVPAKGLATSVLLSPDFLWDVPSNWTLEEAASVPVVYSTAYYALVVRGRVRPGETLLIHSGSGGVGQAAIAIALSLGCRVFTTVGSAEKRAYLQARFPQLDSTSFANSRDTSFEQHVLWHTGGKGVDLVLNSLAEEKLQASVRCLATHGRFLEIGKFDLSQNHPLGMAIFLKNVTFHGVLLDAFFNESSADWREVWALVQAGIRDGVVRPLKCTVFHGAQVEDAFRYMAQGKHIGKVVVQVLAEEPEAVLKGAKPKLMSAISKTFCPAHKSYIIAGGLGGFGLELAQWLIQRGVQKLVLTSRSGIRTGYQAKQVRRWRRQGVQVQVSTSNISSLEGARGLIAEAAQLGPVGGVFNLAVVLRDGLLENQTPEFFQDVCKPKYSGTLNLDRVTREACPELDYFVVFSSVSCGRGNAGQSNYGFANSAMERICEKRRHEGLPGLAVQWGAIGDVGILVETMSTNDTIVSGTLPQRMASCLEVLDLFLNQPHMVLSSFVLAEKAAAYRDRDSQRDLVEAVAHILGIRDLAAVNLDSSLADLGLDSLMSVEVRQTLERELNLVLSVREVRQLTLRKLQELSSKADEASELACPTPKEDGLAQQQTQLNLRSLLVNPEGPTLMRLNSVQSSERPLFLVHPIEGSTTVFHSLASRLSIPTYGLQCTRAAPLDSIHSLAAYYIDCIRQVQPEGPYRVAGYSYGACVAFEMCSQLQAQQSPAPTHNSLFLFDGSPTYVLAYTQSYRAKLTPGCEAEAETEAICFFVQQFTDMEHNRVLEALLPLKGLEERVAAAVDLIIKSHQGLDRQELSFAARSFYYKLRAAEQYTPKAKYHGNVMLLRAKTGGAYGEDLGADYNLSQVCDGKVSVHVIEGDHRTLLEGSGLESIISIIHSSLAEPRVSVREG
The source made the active and inactive calls.
quantity measured: IC50

// `O=C(N/C(=C\c1ccc(Br)cc1)C(=O)N1CCOCC1)c1ccc([N+](=O)[O-])cc1` : IC50 value = 0.286 µM (active)

// `CCCSc1cc(NCCOC(=O)CCC)c([N+](=O)[O-])c2nonc12` : IC50 value = 16.5 µM (active)

// `Cc1cccc2cc(/C=N/Nc3ccc(C(=O)O)cc3)c(Cl)nc12` : IC50 value = 18.3 µM (active)

// `COc1ccc(OC)c(COC(=O)c2cc([N+](=O)[O-])ccc2N2CCOCC2)c1` : IC50 value = 15.4 µM (active)

* * *

target: Long-chain-fatty-acid--AMP ligase FadD28 (Mycobacterium tuberculosis); test: Fluorescence polarization aasay to screen for inhibitors that compete for the binding of FadD28 to a bisubstrate Measured in Biochemical System Using Plate Reader - 2147-01_Inhibitor_Dose_CherryPick_Activity.; type: functional, Mycobacterium tuberculosis H37Rv
Sequence (P9WQ59 whole entry): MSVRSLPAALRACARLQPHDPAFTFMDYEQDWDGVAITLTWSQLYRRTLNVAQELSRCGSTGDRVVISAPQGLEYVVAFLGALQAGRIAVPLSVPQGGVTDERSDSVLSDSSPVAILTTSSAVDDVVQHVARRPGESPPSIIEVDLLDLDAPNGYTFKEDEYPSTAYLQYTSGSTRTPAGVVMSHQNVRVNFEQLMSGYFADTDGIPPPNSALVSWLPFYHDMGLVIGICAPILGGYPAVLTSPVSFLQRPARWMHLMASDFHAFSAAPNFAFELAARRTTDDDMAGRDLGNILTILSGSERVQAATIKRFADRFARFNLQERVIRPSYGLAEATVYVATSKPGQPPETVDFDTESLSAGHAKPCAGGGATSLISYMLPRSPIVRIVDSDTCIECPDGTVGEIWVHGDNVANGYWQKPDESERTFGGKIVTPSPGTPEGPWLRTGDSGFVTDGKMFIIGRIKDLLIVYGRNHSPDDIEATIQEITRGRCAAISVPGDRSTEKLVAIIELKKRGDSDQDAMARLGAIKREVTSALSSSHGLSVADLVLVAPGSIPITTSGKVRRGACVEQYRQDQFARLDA
Activity calls are given as the source filed them.
Valid outcomes are listed here; reply with one: active, inactive

Q: Recorded test call requested for CCC(C(=O)NC1CCCCC1)n1c(SCc2ccccc2F)nc2ccncc21 (centres undefined)
Result: inactive

Q: Recorded test call requested for `O=C(O)c1cccc(-n2cccc2/C=C2/NC(=O)N(c3ccc(Cl)cc3)C2=O)c1`
Result: active

Q: Recorded test call requested for `O=C(CN1C(=O)S/C(=C\c2cc(Cl)c(O)c(Cl)c2)C1=O)Nc1ccccc1`
Result: active

Q: Recorded test call requested for `COc1ccc2c(c1)C(=NNc1ccc(C(=O)O)cc1)c1cc(OC)ccc1-2`
Result: active

* * *

biological target: Glucose-6-phosphate 1-dehydrogenase (Homo sapiens, UniProt P11413); test: inhibition of Homo sapiens G6PD, dose series – biochemical, fluorescence, selectivity assay for P. falciparum G6PD inhibitor project, dose response (AID 504792); assay type: functional
Sequence (P11413 whole entry): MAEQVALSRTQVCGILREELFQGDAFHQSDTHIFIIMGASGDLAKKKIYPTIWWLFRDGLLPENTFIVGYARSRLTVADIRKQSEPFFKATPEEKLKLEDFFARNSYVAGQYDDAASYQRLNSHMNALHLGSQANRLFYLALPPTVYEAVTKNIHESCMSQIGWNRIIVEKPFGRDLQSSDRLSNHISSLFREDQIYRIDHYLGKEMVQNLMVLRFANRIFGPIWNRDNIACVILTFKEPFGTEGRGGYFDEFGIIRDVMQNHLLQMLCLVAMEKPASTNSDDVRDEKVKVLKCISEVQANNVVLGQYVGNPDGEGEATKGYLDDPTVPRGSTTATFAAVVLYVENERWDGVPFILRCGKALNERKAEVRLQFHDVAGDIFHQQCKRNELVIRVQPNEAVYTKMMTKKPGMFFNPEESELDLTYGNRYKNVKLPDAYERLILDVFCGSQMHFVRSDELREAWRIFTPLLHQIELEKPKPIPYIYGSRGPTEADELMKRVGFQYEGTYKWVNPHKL
Activity calls are given as the source filed them.
Valid outcomes are listed here; reply with one: active, inactive

Q: Recorded test call requested for `O=c1c2ccccc2sn1-c1cc(S(=O)(=O)N2CCOCC2)ccc1N1CCCC1`
Result: active

Q: Recorded test call requested for `C=C1C(=O)O[C@@H]2C[C@@H](C)[C@@H]3C=CC(=O)[C@@]3(C)[C@@H](OC(=O)CC(=O)O[C@H]3[C@@H]4C(=C)C(=O)O[C@@H]4C[C@@H](C)[C@@H]4C=CC(=O)[C@]43C)[C@H]12`
Result: inactive

Q: Recorded test call requested for `COc1cccc(/C=N/NC(=O)c2c(C)nc3ccc(Br)cn23)c1`
Result: inactive

Q: Recorded test call requested for `Oc1cc(CNCc2ccccc2)c(O)cc1CNCc1ccccc1`
Result: inactive

Q: Recorded test call requested for `O=C1OC(c2ccc3ccccc3c2O)(c2ccc3ccccc3c2O)c2ccccc21`
Result: inactive

* * *

molecular target: Corticotropin-releasing factor receptor 2/Corticotropin-releasing factor-binding protein (Homo sapiens, UniProt P24387+Q13324); experiment: activators of CRF receptor 2 with binding protein – uHTS hits, confirmation (AID 602473); assay type: functional; settings: read-out: EC50_Mean
Sequence (Q13324 whole entry): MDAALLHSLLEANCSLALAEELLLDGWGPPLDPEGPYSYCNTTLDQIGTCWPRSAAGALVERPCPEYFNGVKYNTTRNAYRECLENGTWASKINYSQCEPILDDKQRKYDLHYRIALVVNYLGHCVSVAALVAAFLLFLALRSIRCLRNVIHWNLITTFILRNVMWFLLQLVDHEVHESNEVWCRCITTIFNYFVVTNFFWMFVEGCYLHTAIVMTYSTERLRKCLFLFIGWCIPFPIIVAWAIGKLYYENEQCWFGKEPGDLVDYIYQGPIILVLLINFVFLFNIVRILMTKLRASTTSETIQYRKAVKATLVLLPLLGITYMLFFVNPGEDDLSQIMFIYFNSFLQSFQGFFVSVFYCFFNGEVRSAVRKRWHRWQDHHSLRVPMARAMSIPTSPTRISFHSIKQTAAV
Sequence (P24387 whole entry): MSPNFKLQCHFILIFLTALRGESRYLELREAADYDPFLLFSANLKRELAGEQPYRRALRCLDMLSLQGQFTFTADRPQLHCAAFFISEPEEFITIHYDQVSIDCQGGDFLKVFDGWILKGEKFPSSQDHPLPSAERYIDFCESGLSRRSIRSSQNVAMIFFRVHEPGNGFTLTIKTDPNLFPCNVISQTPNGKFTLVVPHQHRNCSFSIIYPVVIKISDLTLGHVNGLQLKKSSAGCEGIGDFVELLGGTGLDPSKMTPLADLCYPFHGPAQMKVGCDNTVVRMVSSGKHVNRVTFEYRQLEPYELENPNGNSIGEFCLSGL
Activity calls are given as the source filed them.
Valid outcomes are listed here; reply with one: active, inactive

Q: Recorded test call requested for `O=C(N/N=C/c1ccccn1)c1cccs1`
Result: inactive

Q: Recorded test call requested for `Cc1cc(C=C(C#N)C#N)ccc1N1CCCC1`
Result: active

Q: Recorded test call requested for `COc1cccc2cc(-c3nnc(-c4ccccc4)o3)c(=O)oc12`
Result: inactive

Q: Recorded test call requested for `CC(=O)c1ccc(NC(=O)CCc2nnc3ccc(N4CCC5(CC4)OCCO5)nn23)cc1`
Result: inactive

Q: Recorded test call requested for `CCCCC(=O)NC(=S)NNC(=O)c1ccc(Cl)cc1Cl`
Result: active

Q: Recorded test call requested for `C=CCN1C(=O)/C(=C/c2ccc(O)cc2)S/C1=N/c1nccs1`
Result: inactive

Q: Recorded test call requested for `COc1ccccc1NC(=O)CSc1nnc(CNC(=O)c2ccco2)o1`
Result: inactive

Q: Recorded test call requested for `O=C(c1ccc([N+](=O)[O-])cc1)N(Cc1ccc(Cl)cc1)N1C(=O)CCCC1=O`
Result: active

Q: Recorded test call requested for COc1ccc(NC(=O)C(Sc2ccccc2)c2ccccc2)c(OC)c1 (stereo unspecified)
Result: inactive

Q: Recorded test call requested for `Cc1c(Cl)cccc1N1C(=O)c2ccccc2C1=O`
Result: inactive

Q: Recorded test call requested for `O=C1C(=Cc2ccncc2)CCCc2ccccc21`
Result: inactive

* * *

biological target: Kappa-type opioid receptor (Homo sapiens, UniProt P41145); type: functional
quantity measured: EC50 (µM)
Could you give me the number in µM? Just the number is fine.

// `C(=C\c1ccccc1)/CSc1nnc(-c2ccccn2)n1Cc1ccco1` : EC50 value = 3.18

* * *

assay: NIH3T3 cell viability loss – ATP luminescence, mouse fibroblasts, counter-screen, dose response (AID 2010); assay type: functional, cell-based;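 note: cells exposed to compound for about 90 hours before reading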
The source made the active and inactive calls.
quantity measured: EC50

// COc1ccc(Cl)cc1C(=O)C1CCCN(Cc2cnc(N3CCOCC3)s2)C1 (stereo not drawn) : EC50 value = > 60 µM (not active)

// `Cc1ccc(-c2c[n+](CC(=O)c3ccc(Br)cc3)c3n2CCCCC3)cc1` : EC50 value = > 60 µM (not active)

// `O=C(Nc1cccc(N2CCCC2)c1)c1cccs1` : EC50 value = > 60 µM (not active)

// NC(=O)[C@@H]1CC2(CC(c3cccc(NC(=O)CC(c4ccccc4)c4ccccc4)c3)=NO2)CN1C(=O)c1ccc(Cl)cc1 (stereo partly drawn) : EC50 value = > 60 µM (not active)

// `COc1ccc(CNc2ccc3c(c2)CCC3)cc1OC` : EC50 value = > 30 µM (not active)

// O=C(NC1CCCCC1)C(c1ccc(F)cc1)N(C(=O)Cc1ccsc1)c1ccc(F)cc1 (stereo not drawn) : EC50 value = > 60 µM (not active)

// `O=C1NC(=O)N(C2CCCCCC2)C(=O)/C1=C/NC1CCN(Cc2ccccc2)CC1` : EC50 value = 23.5 µM (active)

// FC(F)(F)COc1nc(N/N=C/c2cccnc2)nc(N2CCCCC2c2ccccn2)n1 (stereo not drawn) : EC50 value = > 60 µM (not active)

Taken from ChEMBL document CHEMBL1201862.
